Measured values drawn from patent US20260209223A1 for this set.

target: FGFR2 (Homo sapiens); construct: made in house; host or cells: E. coli (BL21-derived) infected with T7 phage; assay: Kinase binding assay (Kd), kinase-tagged T7 phage, affinity beads, qPCR; details: in vitro binding assay, 11-point 3-fold dilution series
Sequence (P21802 22-821): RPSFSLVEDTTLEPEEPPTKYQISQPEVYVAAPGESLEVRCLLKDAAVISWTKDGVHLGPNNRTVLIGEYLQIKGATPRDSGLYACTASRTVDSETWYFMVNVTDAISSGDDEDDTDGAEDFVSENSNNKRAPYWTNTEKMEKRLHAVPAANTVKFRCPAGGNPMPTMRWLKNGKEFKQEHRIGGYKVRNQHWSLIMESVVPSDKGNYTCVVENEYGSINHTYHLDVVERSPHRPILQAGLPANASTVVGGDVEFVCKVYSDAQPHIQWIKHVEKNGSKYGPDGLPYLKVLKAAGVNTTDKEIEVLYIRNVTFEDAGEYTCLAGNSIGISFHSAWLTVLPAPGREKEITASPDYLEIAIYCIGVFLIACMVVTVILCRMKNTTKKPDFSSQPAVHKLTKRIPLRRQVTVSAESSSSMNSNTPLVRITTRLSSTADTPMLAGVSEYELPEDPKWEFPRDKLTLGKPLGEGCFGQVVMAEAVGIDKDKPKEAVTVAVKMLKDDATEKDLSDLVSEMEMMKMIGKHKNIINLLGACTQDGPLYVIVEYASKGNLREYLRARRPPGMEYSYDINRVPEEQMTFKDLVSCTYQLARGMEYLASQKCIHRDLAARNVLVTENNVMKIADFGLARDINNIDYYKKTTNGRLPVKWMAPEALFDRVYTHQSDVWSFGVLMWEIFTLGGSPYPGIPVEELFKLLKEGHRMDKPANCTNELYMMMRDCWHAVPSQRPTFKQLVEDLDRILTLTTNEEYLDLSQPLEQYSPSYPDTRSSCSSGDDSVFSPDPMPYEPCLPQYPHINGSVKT
test-readout: Kd

Using the record for `C=CC(=O)N1CC(C(=O)N2CCC(n3nnc(-c4cc(O[C@@H](CO)c5ccccn5)c5c(C#N)cnn5c4)c3C)CC2)C1` , report its Kd.
250 to 1000 nM

Using the record for C#CC(=O)N1CC(OC)(C(=O)N2CCC(n3nnc(-c4cc(OC(CO)c5ccccn5)c5c(C#N)cnn5c4)c3C)CC2)C1 (stereo not drawn) , report its Kd.
0.1 to 100 nM

Using the record for COC1(C(=O)N2CCC(n3nnc(-c4cc(OC(CO)c5ccccn5)c5c(C#N)cnn5c4)c3C)CC2)CN(C(=O)/C=C/CN(C)C)C1 (stereo not drawn) , report its Kd.
0.1 to 100 nM

Using the record for C=CC(=O)N1CCC2(CC1)CC(n1ncc(-c3cc(OC(CO)c4ccnn4C)c4c(C#N)cnn4c3)c1C)C2 (stereo not drawn) , report its Kd.
100 to 250 nM

Using the record for `C=CC(=O)N1CCC2(CC1)CC(n1cc(-c3cc(O[C@@H](CO)c4ccc(F)cn4)c4c(C#N)cnn4c3)cn1)C2` , report its Kd.
100 to 250 nM

Using the record for C=CC(=O)N1CCC2(CC1)CC(n1ncc(-c3cc(OC(CO)c4cncc5ccccc45)c4c(C#N)cnn4c3)c1C)C2 (stereo not drawn) , report its Kd.
0.1 to 100 nM
